// Effects Cotton lookup, one value per entry
# Test system: cotton
# procedure_summary: Foliar spread test for upland field
# Type: in vivo
# Parameters: key: 0: normal development; 1: Less damaged; 2: Slightly damaged; 3: Moderately damaged; 4: Severely damaged; 5: All killed
# condition_label: foliar spray 500 ppm, 3 weeks, rank vs non-treated

compound	Effects Cotton
CCC(Oc1ccc(F)c(C(F)(F)F)c1)c1nc2cc(I)ccc2o1 (stereo not drawn)	4
CCC(Oc1ccc(Cl)c(C(F)(F)F)c1)c1nc2cc(F)ccc2o1 (stereo not drawn)	3
CCCC(Oc1cccc(C(F)(F)F)c1)c1nc2cc(Cl)ccc2o1 (stereo not drawn)	3
CCCC(Oc1ccc(F)c(C(F)(F)F)c1)c1nc2ccc(C(F)(F)F)cc2o1 (stereo not drawn)	2
CCC(Oc1cccc(OC(F)(F)F)c1)c1nc2cc([N+](=O)[O-])ccc2o1 (stereo not drawn)	5
CCC(Oc1cccc(C(F)(F)F)c1)c1nc2cc(Br)ccc2o1 (stereo not drawn)	2
CCC(Oc1cccc(OC(F)(F)F)c1)c1nc2cc(Cl)ccc2o1 (stereo not drawn)	4
CCCC(Oc1cccc(C(F)(F)F)c1)c1nc2cc(C#N)ccc2o1 (stereo not drawn)	3
CC(Oc1ccc(F)c(C(F)(F)F)c1)c1nc2cc(Cl)ccc2o1 (stereo not drawn)	2

====

# System: velvetleaf
# procedure_summary: Soil treatment test for upland field
# Assay type: in vivo, Abutilon theophrasti
# Parameters: key: 0: normal development; 1: Less damaged; 2: Slightly damaged; 3: Moderately damaged; 4: Severely damaged; 5: All killed
# condition_label: 500 g/ha, glass house 25° C., 3 weeks
# Method: (0: normal development, 1: Less damaged, 2: Slightly damaged, 3: Moderately damaged, 4: Severely damaged, 5: All killed). […] The herbicidal effects were evaluated according to the evaluation method described in the above (1).
value_type: Effects Velvetleaf

molecule	endpoint_value
CCCC(Oc1ccc(F)c(C(F)(F)F)c1)c1nc2cc(S(C)(=O)=O)c(C)cc2o1 (stereo not drawn)	5
CCCC(Oc1ccc(F)c(C(F)(F)F)c1)c1nc2cc(C(F)(F)F)ccc2o1 (stereo not drawn)	5
CCC(Oc1ccc(F)c(C(F)(F)F)c1)c1nc2cc(Cl)ccc2o1 (stereo not drawn)	5
CCCC(Oc1ccc(F)c(C(F)(F)F)c1)c1nc2cc(F)c(Cl)cc2o1 (stereo not drawn)	3
CCC(Oc1ccc(F)c(C(F)(F)F)c1)c1nc2cc(F)c(F)cc2o1 (stereo not drawn)	5
CCC(Oc1ccc(F)c(C(F)(F)F)c1)c1nc2cc(C#N)c(C#N)cc2o1 (stereo not drawn)	5
CCCC(Oc1cccc(C(F)(F)F)c1)c1nc2cc(Cl)ccc2o1 (stereo not drawn)	5
CCC(Oc1cccc(C#N)c1)c1nc2cc(F)c(Cl)cc2o1 (stereo not drawn)	3
CCCC(Oc1ccc(F)c(C(F)(F)F)c1)c1nc2cc(Cl)ccc2o1 (stereo not drawn)	5

====

# Tested on: cotton
# procedure_summary: Foliar spread test for upland field
# Type: in vivo
# Design: key: 0: normal development; 1: Less damaged; 2: Slightly damaged; 3: Moderately damaged; 4: Severely damaged; 5: All killed
# condition_label: foliar spray 500 ppm, 3 weeks, rank vs non-treated
# Description: (0: normal development, 1: Less damaged, 2: Slightly damaged, 3: Moderately damaged, 4: Severely damaged, 5: All killed). […] The herbicidal effects were evaluated according to the evaluation method described in the above (1).

compound	experimental_target	Effects Cotton
CCC(Oc1ccc(F)c(C(F)(F)F)c1)c1nc2cc(F)ccc2o1 (centres unmarked)	cotton	1
CCC(Oc1ccc(F)c(C(F)(F)F)c1)c1nc2cc(F)c(F)cc2o1 (centres unmarked)	cotton	3
CCC(Oc1cccc(C#N)c1)c1nc2cc(S(C)(=O)=O)c(C)cc2o1 (centres unmarked)	cotton	2
CCC(Oc1cccc(C(F)(F)F)c1)c1nc2cc(F)ccc2o1 (centres unmarked)	cotton	2
CCC(Oc1ccc(Cl)c(C(F)(F)F)c1)c1nc2cc(Cl)ccc2o1 (centres unmarked)	cotton	3

Origin of values: patent US6706664B1
